# assay procedure: Intrinsic clearance in CD1 mouse liver microsomes at 1 uM up to 40 mins by UPLC-MS/MS analysis
# Format: ADME, microsome
# settings: read-out: CLH
result type: microsomal CLint at 1 µM
# include the unit after the value

IN: microsomal CLint at 1 µM lookup needed for "Cc1nc(N2CCN(C)CC2)c2nc(-c3ccccc3Cl)oc2n1" , thanks.
OUT: 502 µL/min/mg

IN: For the compound shown here, "CCN1CCN(c2nc(C)nc3[nH]c(-c4ccccc4Cl)nc23)CC1" , give the reported microsomal CLint at 1 µM.
OUT: 54 µL/min/mg

IN: Please give the measured microsomal CLint at 1 µM for this compound: "CCN1CCN(c2nc(C)nc3oc(-c4ccccc4Cl)nc23)CC1"
OUT: 263 µL/min/mg

IN: # get_value(readout='microsomal CLint at 1 µM', item= "CC(=O)N1CCN(c2ncnc3oc(-c4ccccc4C(F)(F)F)nc23)CC1" )
OUT: 174 µL/min/mg

IN: Look at this compound and give its reported microsomal CLint at 1 µM. "CN1CCN(c2ncnc3oc(-c4ccccc4C(F)(F)F)nc23)CC1"
OUT: 1260 µL/min/mg

IN: Please give the measured microsomal CLint at 1 µM for this compound: "CCN1CCN(c2ncnc3oc(-c4ccccc4C(F)(F)F)nc23)CC1"
OUT: 1240 µL/min/mg

IN: Form field: reported microsomal CLint at 1 µM of "CCN1CCN(c2ncnc3oc(-c4ccccc4Cl)nc23)CC1"
OUT: 1100 µL/min/mg

* * *

# assay procedure: Half life in CD1 mouse liver microsomes at 1 uM up to 40 mins by UPLC-MS/MS analysis
# Type: ADME, microsome
# cutoff 8 min applies to half-life at 1 µM; >= gives Condition met, < gives Condition not met

IN: Threshold query (half-life at 1 µM >= 8 min) on "CN1CCN(c2ncnc3oc(-c4ccccc4C(F)(F)F)nc23)CC1"
OUT: Condition not met

IN: Could you please find out whether "CCN1CCN(c2ncnc3oc(-c4ccccc4C(F)(F)F)nc23)CC1" has half-life at 1 µM that meets 8 min or exceeds it?
OUT: Condition not met

IN: Can "Cc1nc(N2CCN(C)CC2)c2nc(-c3ccccc3Cl)oc2n1" be said to have half-life at 1 µM at or above 8 min?
OUT: Condition not met

IN: Is half-life at 1 µM at least 8 min? Consider "CCN1CCN(c2ncnc3oc(-c4ccccc4Cl)nc23)CC1"
OUT: Condition not met

IN: Record "CC(=O)N1CCN(c2ncnc3oc(-c4ccccc4C(F)(F)F)nc23)CC1" ; criterion: half-life at 1 µM no lower than 8 min. Met?
OUT: Condition met

IN: Please check the record "CCN1CCN(c2nc(C)nc3[nH]c(-c4ccccc4Cl)nc23)CC1" and state if its half-life at 1 µM is at or above 8 min.
OUT: Condition met

* * *

# assay procedure: Cytotoxicity against CB2-expressing CHO cells assessed as cell growth inhibition at 10 uM after 72 hrs by MTS assay
# Assay type: cell-based, Cricetulus griseus
# settings: chinese hamster, read-out: GI
result type: inhibition at 72 h, 10 µM (%)
State just the number; it will be interpreted in %.

IN: # lookup: inhibition at 72 h, 10 µM of "Clc1ccccc1-c1nc2c(NCC3CCCCC3)ncnc2o1"
OUT: 10

IN: Bench note: what inhibition at 72 h, 10 µM did "COc1ccc(C(=O)c2c(C)n(CCN3CCOCC3)c3cc(I)ccc23)cc1" show?
OUT: 0

IN: Which inhibition at 72 h, 10 µM is reported for this compound? "Clc1ccccc1-c1nc2c(NCC3CCNCC3)ncnc2o1"
OUT: 9

IN: # get_value(readout='inhibition at 72 h, 10 µM', item= "CN1CCN(c2ncnc3oc(-c4ccccc4Cl)nc23)CC1" )
OUT: 0

IN: Reported inhibition at 72 h, 10 µM for "CCCN1CCN(c2ncnc3oc(-c4ccccc4Cl)nc23)CC1" : what is it?
OUT: 2

IN: What does the record list as inhibition at 72 h, 10 µM for "CN1CCN(c2ncnc3oc(-c4ccccc4)nc23)CC1" ?
OUT: 0

IN: For the compound "CN1CCN(c2ncnc3oc(-c4ccccc4F)nc23)CC1" , what inhibition at 72 h, 10 µM is on record?
OUT: 7

IN: Return reported inhibition at 72 h, 10 µM; argument: "CCN1CCN(c2ncnc3oc(-c4ccccc4Cl)nc23)CC1"
OUT: 9

IN: Look up inhibition at 72 h, 10 µM: "COCCNc1ncnc2oc(-c3ccccc3Cl)nc12"
OUT: 0

IN: Endpoint output: inhibition at 72 h, 10 µM of "Cc1nc(N2CCN(C)CC2)c2nc(-c3ccccc3Cl)oc2n1" . Value?
OUT: 4

IN: Entry under review: "CCN1CCN(c2ncnc3oc(-c4ccccc4F)nc23)CC1" . Reported inhibition at 72 h, 10 µM?
OUT: 8

IN: Which inhibition at 72 h, 10 µM is listed for "CCN1CCN(c2nc(C)nc3oc(-c4ccccc4Cl)nc23)CC1" ?
OUT: 16

* * *

Hi there, I'd appreciate the recorded inhibition at 72 h, 10 µM for every entry that follows.
# assay procedure: Cytotoxicity against human HT-29 cells assessed as cell growth inhibition at 10 uM after 72 hrs by MTS assay
# Type: cell-based
# settings: read-out: GI
Return type: number; implicit unit %.

IN: Query: inhibition at 72 h, 10 µM; subject: "CCN1CCN(c2nc(C)nc3[nH]c(-c4ccccc4Cl)nc23)CC1"
OUT: 0

IN: # lookup: inhibition at 72 h, 10 µM of "CCN1CCN(c2ncnc3oc(-c4ccccc4C(F)(F)F)nc23)CC1"
OUT: 1

IN: // returns reported inhibition at 72 h, 10 µM for input "Clc1ccccc1-c1nc2c(N3CCOCC3)ncnc2o1"
OUT: 5

IN: Which value of inhibition at 72 h, 10 µM has been reported for "COc1ccc(C(=O)c2c(C)n(CCN3CCOCC3)c3cc(I)ccc23)cc1" in the records?
OUT: 0

IN: I have this compound here, "CN1CCN(c2ncnc3oc(-c4ccccc4F)nc23)CC1" , and I need its recorded inhibition at 72 h, 10 µM.
OUT: 0

IN: Query (compound): "Clc1ccccc1-c1nc2c(NCC3CCCCC3)ncnc2o1" ; field requested: inhibition at 72 h, 10 µM
OUT: 0

IN: Fill in the blank: the reported inhibition at 72 h, 10 µM of "CCCCNc1ncnc2oc(-c3ccccc3Cl)nc12" is ____.
OUT: 0

IN: Item under review: "CN1CCN(c2ncnc3oc(-c4ccccc4)nc23)CC1" . Reported inhibition at 72 h, 10 µM?
OUT: 0

IN: Using the record for "Clc1ccccc1-c1nc2c(NCC3CCNCC3)ncnc2o1" , report its inhibition at 72 h, 10 µM.
OUT: 41

IN: Need inhibition at 72 h, 10 µM of "CN1CCN(c2ncnc3oc(-c4ccccc4C(F)(F)F)nc23)CC1" , thanks.
OUT: 0

IN: So what's the measured inhibition at 72 h, 10 µM for this one? "Cc1nc(N2CCN(C)CC2)c2nc(-c3ccccc3Cl)oc2n1"
OUT: 24

IN: For the compound "CCCN1CCN(c2ncnc3oc(-c4ccccc4Cl)nc23)CC1" , what inhibition at 72 h, 10 µM is on record?
OUT: 0
